- SETTINGS: Surf. Brij 35P 2.5%, lipid 90H 1.0%, co-surf. S LPC ca. 0.01% (as SL 80-3 0.05%), active agent 0.10%
READOUT_KIND: Turbidity (FNU)

Worked cases, answers included:
COMPOUND	Turbidity (FNU)
O=C(O)Cc1ccccc1Nc1c(Cl)cccc1Cl [Diclofenac]	14.39
O=C(/C=C/c1ccc(O)c(O)c1)O[C@H](Cc1ccc(O)c(O)c1)C(=O)O [Rosmarinic acid (90%)]	31.5

(A) CCC(=O)O[C@]1(C(=O)CCl)[C@@H](C)C[C@H]2[C@@H]3CCC4=CC(=O)C=C[C@]4(C)[C@@]3(F)[C@@H](O)C[C@@]21C [Clobetasol Propionate]
(B) CC(Cc1ccc(O)c(O)c1)C(C)Cc1ccc(O)c(O)c1 (stereo not shown) [NDGA]
(C) COc1ccc2cc([C@H](C)C(=O)O)ccc2c1 [Naproxen]
Query: hey, can you rank those compounds up there by Turbidity (FNU)? biggest number first please Order the labels as requested and give them as your answer.
Result: B, A, C
